- assay_info: Human HepG2 cell viability assay in 384 well format
- Type: toxicity, cell-based
- Set-up: dose 125 nL, time 70.5 hour; concentration not given beside the values
- test_parameters: HepG2 cells, read-out: Inhibition
cytotoxicity at 70.5 h: recorded values
Numbers only; they are read as %.

CN1CCN(C[C@@H]2CN(C(=O)CC3CCCCC3)C[C@@H]2CO)CC1    0.234
CCc1ncc2c(n1)CN(CCCc1nc3ccccc3o1)CC2    0.768
CC(C)n1nccc1NC(=O)NCCc1nc2ccc(F)cc2n1C    -11

# input molecule: CC(O)C(=O)N1CCC(c2[nH]ncc2-c2ccccc2)CC1 (centres undefined) ; wanted: its cytotoxicity at 70.5 h 20.2

cytotoxicity at 70.5 h lookup needed for CCCN1CCC(Nc2nc(C)ns2)CC1 , thanks. -8.37

Need cytotoxicity at 70.5 h of CCCN(CCC)S(=O)(=O)NC(C)C(=O)N(C)C (centres undefined) , thanks. -6.45

Query: cytotoxicity at 70.5 h; subject: Cc1nc(-c2nc(C(=O)N3CCOCC3)c3ccccn23)cn1C(C)C -5.18

Looking for the measured cytotoxicity at 70.5 h of COCCOc1ccccc1CNCC1COC2(CCCC2)O1 (centres undefined) , can you help? 0.252

Consider the molecule shown here: Cc1ccc(NC2CCN(C(=O)c3ccc(F)cc3Cl)CC2)nn1 What is its recorded cytotoxicity at 70.5 h? -3.69

What value of cytotoxicity at 70.5 h has been reported for the following molecule? CCC(NC(=O)c1coc(COc2cccc(F)c2F)n1)C(=O)NC (centres undefined) -9.68

So what's the measured cytotoxicity at 70.5 h for this one? Cc1noc(C)c1-c1cncc(C2CCCN2Cc2ncc[nH]2)n1 (centres undefined) 16.2

I have this molecule here, CC(C)NC(=O)c1cnc(Sc2nccn2C)c(Cl)c1 , and I need its recorded cytotoxicity at 70.5 h. 9.84

Entry under review: COc1ccc(CNCCc2cc(F)cc3c2OCOC3)cc1OC . Reported cytotoxicity at 70.5 h? 2.03

Query: cytotoxicity at 70.5 h; subject: O=C1CCC2(CCNCC2)CN1CCCOc1cccnc1 -1.48

Name the reported cytotoxicity at 70.5 h value associated with the molecule CC(C)N1Cc2cccc(NCC(=O)N(C)C)c2C1 -2.57

GET /values?readout=cytotoxicity at 70.5 h&item= O=C(c1nn[nH]c1Nc1ccc(Cl)cc1)N1CCSCC1 9.23

Report cytotoxicity at 70.5 h for Cc1nccc(N2CCCC(c3nnc(Cn4ccnc4C)n3C)C2)n1 (centres undefined) please. 16.3
